# Tested on: K-562 leukemia
# protocol-description: NCI-60 one-dose screen, 48 h
# conditions-used: 10 µM unless noted
This is part of a sample that, as a whole, favours compounds with a hit. Of some 83,000 tested, about 20% had one in any assay. The source made the active and inactive calls. Rule for the calls: active = growth percent below 10; inactive = the rest.
Classes used: active, inactive

compound | tgt | cat
CN1NC(c2ccccc2)NN(C)C1=O | K-562 leukemia | inactive
CC(=O)N1CCN(CCNC(=O)n2cc(-c3ccncc3)c(-c3ccc(O)c(Cl)c3)n2)CC1 | K-562 leukemia | inactive
CCC(C)CC(N)O (stereo not given) | K-562 leukemia | inactive
Cc1ccc(C(=O)Nc2ccc(CN3CCN(C)CC3)c(C(F)(F)F)c2)cc1C#Cc1cncc2ncccc12 | K-562 leukemia | active
CCCCCCC(=O)C(C)C | K-562 leukemia | inactive
COC(=O)[C@H](Cc1cn(C)cn1)NC(=O)[C@H](CC(=O)OCc1ccccc1)NC(=O)Nc1cc(C(F)(F)F)cc(C(F)(F)F)c1 | K-562 leukemia | active
COc1ccc2c(c1)/C(=C1/S/C(=N/c3nnc(C)s3)NC1=O)C(=O)N2Cc1ccc(Br)cc1 | K-562 leukemia | inactive
CCCCCCCCCC(C)NC(=O)CCl (stereo not given) | K-562 leukemia | inactive
CC(=O)OC1CC2C3CCC4C[C@@H](NC(=O)C=C(C)C)CC[C@]4(C)C3CC[C@]2(C)[C@H]1C(C)N(C)C (stereo not given in full) | K-562 leukemia | active
CC(=O)N(N=O)c1ccc([N+](=O)[O-])cc1Cl | K-562 leukemia | inactive

----------
# System: MALME-3M melanoma
# protocol-description: NCI-60 one-dose screen, 48 h
# conditions-used: 10 µM unless noted
The panel holds about 83,000 compounds, 20% with a hit somewhere; the sample as a whole holds those more often. Calls of active or inactive are those of the source. How the source made its calls: active means growth percent below 10; inactive means the rest.
Classes used: active, inactive

compound | tgt | cat
CCCCCCCCCCCCCCCCNC(=S)N/N=C/c1ccc(O)cc1O | MALME-3M melanoma | inactive
Cc1ccc(CC(=O)O)c(C)c1 | MALME-3M melanoma | inactive
N/C(=N\O)c1ccncc1 | MALME-3M melanoma | inactive
O=C1NCCN1/N=C/c1c(Cl)nc2n1CCS2 | MALME-3M melanoma | inactive
[2H]c1nc(=Nc2cc(NC(=O)C=C)c(N(C)CCN(C)C)cc2OC)[nH]c(-c2cn(C([2H])([2H])[2H])c3ccccc23)c1[2H] | MALME-3M melanoma | active
CCCC(=O)NNc1[nH]c(-c2ccc(OC)cc2)cc1C(=O)OCC | MALME-3M melanoma | inactive
N#CCc1ncc(-c2ccc(C(F)(F)F)cc2)c(NC2CCCCCC2)n1 | MALME-3M melanoma | inactive
C=C(C)[C@@H]1CC[C@]2(COC(=O)c3ccccc3C(=O)O)CC[C@]3(C)[C@H](CC[C@@H]4[C@@]5(C)CCCNC(C)(C)[C@@H]5CC[C@]43C)[C@@H]12 | MALME-3M melanoma | inactive
CCOC(=O)C1CCCN1C(=O)C1(NC(C)=O)CCCC1 (stereo not given) | MALME-3M melanoma | inactive
CC(=O)Nc1nc(C)c(C(=O)N/N=C/N2CCCCC2)s1 | MALME-3M melanoma | inactive

----------
# Test system: OVCAR-3 ovarian
# protocol-description: NCI-60 one-dose screen, 48 h (100 = growth as untreated, 0 = no growth, -100 = all killed)
# conditions-used: 10 µM unless noted
This is part of a sample that, as a whole, favours compounds with a hit. Of some 83,000 tested, about 20% had one in any assay. Active and inactive are the calls of the source. The calls were made as follows: active = growth percent below 10; inactive = the rest.

molecule | growth
COc1cccc(CNC(=O)c2cccc(C3CC(=O)c4c(cc(OC)c(OC)c4OC)O3)c2)c1 (configuration not stated) | 12.6% (inactive)
Cc1ccnc2c(NC(C)CCCN)cc(O)c(O)c12 (configuration not stated) | 59.8% (inactive)
CC(=O)CC(=O)OC/C=C(/C)CCC=C(C)C | 110% (inactive)
NCCCOc1cc(Cl)ccc1NC(=O)c1cc2ccccc2cc1OCCCN | -86.9% (active)
CCCCCCCCCC(C)NC(=O)CCl (configuration not stated) | 89.3% (inactive)
CSCc1ncc(-c2ccc(C(F)(F)F)cc2)c(NC2CCCCCC2)n1 | 39.4% [25 µM] (inactive)
CC(=O)N1CCN(CCNC(=O)n2cc(-c3ccncc3)c(-c3ccc(O)c(Cl)c3)n2)CC1 | 112% (inactive)
CCS(=O)(=O)OCCO[C@H]1Cc2cc3ccc(=O)oc3cc2OC1(C)C | 108% (inactive)
CCOC(=O)C1C(=O)C(=O)N(C(C)C)C1C(=O)OCC (configuration not stated) | 108% (inactive)
CC1CCCCC[N+]12CCCC2 (configuration not stated) | 116% (inactive)
O=C(Nc1ccc(-n2cc(-c3ccncc3)c(-c3ccc(Cl)c(O)c3)n2)cc1)c1cc(C(F)(F)F)cc(C(F)(F)F)c1 | 53.2% (inactive)
CCOC(=O)C1=C(C(F)(F)F)NC(=O)NC1CN1C(=O)c2ccccc2C1=O (configuration not stated) | 129% (inactive)
CCCCCCCCCCCCc1ccc([N+](CC)(CC)CC)cc1 | 23.2% (inactive)
CC(=O)OC1CC2C3CCC4C[C@@H](NC(=O)C=C(C)C)CC[C@]4(C)C3CC[C@]2(C)[C@H]1C(C)N(C)C (some centres not stated) | -4.96% (active)
C/C=C(/C)C(=O)OC1C=C(CO)C(=O)C(OC(=O)/C(C)=C\C)C1C(C)C (configuration not stated) | -89.1% (active)
COc1ccc(C2=C/C(=C\c3ccc(Cl)cc3)C(=O)NN2C(=S)NN)cc1 | 111% (inactive)
COc1ccc(C(=O)CN2C(=O)NC(c3ccccc3)(c3ccccc3)C2=O)cc1 | 107% (inactive)
NNC(=O)CNc1ccc2ccccc2c1 | 114% (inactive)
CCOP1(=O)CC(C)=C(Cl)C(P(=O)(O)O)C1 (configuration not stated) | 113% (inactive)
COc1ccc(Cn2cc3c(c2)-c2oncc2CC3)cc1OC | -27.4% (active)
COc1cc2cn3c4ccc(O)cc4[nH]c(=O)c3c2cc1OC | -13.9% (active)
[2H]c1nc(=Nc2cc(NC(=O)C=C)c(N(C)CCN(C)C)cc2OC)[nH]c(-c2cn(C([2H])([2H])[2H])c3ccccc23)c1[2H] | 50.6% (inactive)
COC(=O)c1ccc2[nH]c(O)c(C(=Nc3ccc(N(C)C(=O)CN4CCN(C)CC4)cc3)c3ccc(N)cc3)c2c1 | 96.2% (inactive)
COc1ccc(-c2cc(C#N)c(NNC(C)=O)[nH]2)cc1 | 104% (inactive)
O=C1/C(=C\c2cn(-c3nc(N4CCOCC4)nc(N4CCOCC4)n3)c3ccccc23)c2ccccc2N1c1c(Cl)cccc1Cl | 69.6% (inactive)
CCCCCSc1ccc2nc(NC(=O)OCCC)sc2c1 | 13.3% (inactive)
CC(=O)Nc1ccc(CC#N)cc1Br | 108% (inactive)
CCCCN(CCCC)CCCNc1c2c(nc3ccc(Cl)cc13)CCCC2 | 88.9% (inactive)
CC1(C)NCCC[C@]2(C)[C@H]3CC=C4[C@@H]5C[C@](C)(COC(=O)c6ccccc6C(=O)O)CC[C@]5(C)CC[C@@]4(C)[C@]3(C)CC[C@@H]12 | 60% (inactive)
Ic1ccc(SSc2ccc(I)cc2)cc1 | 102% (inactive)
Brc1ccc(-c2nc3ccccc3s2)cc1 | 99% (inactive)
COc1cc(NC(C)CCCN)c2nc(C)ccc2c1OC (configuration not stated) | 64.1% (inactive)
O=C1OC(c2ccc(-c3ccccc3)cc2)=C/C1=C/c1c2ccccc2cc2ccccc12 | 97.9% (inactive)
COc1ccc(OC)c(Cn2cc3c(c2-c2ccccc2)CCc2cnoc2-3)c1 | 17.9% (inactive)
C[C@H]1C[C@@H](n2cnc3c(N)nccc32)[C@H](O)[C@@H]1O | 120% (inactive)
CCn1cc(C(=O)O)c(=O)c2cc(F)c(N3CCN(S(=O)(=O)c4ccc(Cl)cc4)CC3)cc21 | 28.2% (inactive)
Cc1nnc(-c2cc3c(ccc4ccccc43)oc2=O)c2cn(-c3ccc(Cl)cc3)nc12 | 89.8% (inactive)
COc1ccc(/C=C(/C(=O)N2CCN(c3ccc(C)cc3)CC2)c2cc(OC)c(OC)c(OC)c2)cc1N | -27.8% (active)
CCOC(=O)NC1=NCC(C)(C)S1 | 97.4% (inactive)
C=C[C@]1(C)C=C2C(=O)[C@@]3(O)OC[C@@]4(CCCC(C)(C)C43O)C2(O)C(O)C1 (some centres not stated) | 16.3% (inactive)
O=C(/C=C/c1c[nH]c2ccccc12)c1cc2ccccc2o1 | 93.3% (inactive)
COc1nc(OC)nc(-c2cc(C(=O)c3ccc(Br)cc3)n3cc(C)cc(C)c23)n1 | 34.5% (inactive)
